The reported measurements were obtained from the supplement of paper PMC12669032.

# Test system: Bacteroides clarus
# measurement.notes: growth AUC relative to DMSO control (median of replicates) (fraction); higher = more growth (less inhibition), active = hit call of the paper
# reported.conditions: 20 µM; 24 h
recorded.endpoint: growth AUC
One number for each entry.

Some solved entries appear below for comparison.
O=C1C(Cl)=C(Cl)C(=O)C(Cl)=C1Cl    1.01
C=CCOC(=O)C(C)(C)OC(=O)c1cc(-n2c(=O)cc(C(F)(F)F)n(C)c2=O)ccc1Cl    1.01
Cc1ccccc1C(=O)Nc1cccc(OC(C)C)c1    0.992
O=C(NCCc1ncc(C(F)(F)F)cc1Cl)c1ccccc1C(F)(F)F    1.01
N#Cc1c(O)c(Cl)c(Cl)c(C#N)c1Cl    0.979
CCOC(=O)OC1=C(c2cc(C)ccc2C)C(=O)NC12CCC(OC)CC2 (stereo not drawn)    0.995

Dear colleague, could you please provide growth AUC for the molecules listed below?
1. CNC(=O)Oc1cccc2c1OC(C)(C)C2O (stereo not drawn)
2. CC1(C)C(C=C(Cl)Cl)C1C(=O)OC(C#N)c1cccc(Oc2ccccc2)c1 (stereo not drawn)
3. CC1(C)OC(c2ccco2)CN1C(=O)C(Cl)Cl (stereo not drawn)
4. CCOP(=S)(OCC)SCS(=O)CC (stereo not drawn)
5. CCC(C)(NC(=O)c1cc(Cl)c(C)c(Cl)c1)C(=O)CCl (stereo not drawn)

Result ::
1. 1.04
2. 1.03
3. 0.942
4. 0.994
5. 0.895

Dear colleague, could you please provide growth AUC for the molecules listed below?
1. C=C(C)CN(CC)c1c([N+](=O)[O-])cc(C(F)(F)F)cc1[N+](=O)[O-]
2. Cc1cc(OC(=O)N(C)C)nn1C(=O)N(C)C

Result ::
1: 0.965; 2: 0.992

Dear colleague, could you please provide growth AUC for the molecules listed below?
1. Cc1cccc2sc3nncn3c12
2. CCOP(=S)(OCC)Oc1cc(Cl)c(SC)cc1Cl

Result ::
0.965
0.979

Dear colleague, could you please provide growth AUC for the molecules listed below?
1. O=NN(CCO)CCO
2. CCOC(=O)CCN(SN(C)C(=O)Oc1cccc2c1OC(C)(C)C2)C(C)C
3. CCc1cccc(C)c1N(C(=O)CCl)C(C)COC (stereo not drawn)
4. CC(C)Oc1cc(-n2nc(C(C)(C)C)oc2=O)c(Cl)cc1Cl
5. CCOP(=S)(OCC)Oc1ccc2c(C)c(Cl)c(=O)oc2c1
6. CC(C)(C)C(O)(CCc1ccc(Cl)cc1)Cn1cncn1 (stereo not drawn)

Result ::
[1.02, 0.985, 1.01, 0.942, 0.957, 1.01]

Dear colleague, could you please provide growth AUC for the molecules listed below?
1. CNC(=O)c1cc(C#N)cc(C)c1NC(=O)c1cc(Br)nn1-c1ncccc1Cl
2. O=C1C[C@@H]2OCC=C3CN4CC[C@]56c7ccccc7N1[C@H]5[C@H]2[C@H]3C[C@H]46
3. CCCCN(CC)c1c([N+](=O)[O-])cc(C(F)(F)F)cc1[N+](=O)[O-]

Result ::
1: 0.977; 2: 0.998; 3: 0.964

Dear colleague, could you please provide growth AUC for the molecules listed below?
1. Oc1ccc(Cl)cc1
2. Cc1cc(C2CC2)nc(Nc2ccccc2)n1
3. CCSC(=O)N1CCCCCC1

Result ::
[0.952, 0.939, 0.974]

Dear colleague, could you please provide growth AUC for the molecules listed below?
1. CCOP(=O)(SC(C)CC)N1CCSC1=O (stereo not drawn)
2. c1nc[n]([Sn]([CH]2CCCCC2)([CH]2CCCCC2)[CH]2CCCCC2)n1
3. CCCSP(=O)(OCC)Oc1ccc(Br)cc1Cl (stereo not drawn)
4. C#CCN1CC(=O)N(COC(=O)C2C(C=C(C)C)C2(C)C)C1=O (mixture of isomers)

Result ::
0.977
0.86
0.95
0.936

Dear colleague, could you please provide growth AUC for the molecules listed below?
1. CCCN(CCC)C(=O)SCc1ccccc1
2. ClC1=C(Cl)[C@]2(Cl)C3CC=CC3[C@@]1(Cl)C2(Cl)Cl (stereo partly drawn)

Result ::
0.996
0.999
